molecular target: COX-1 (Ovis aries)
Sequence (P05979 25-600): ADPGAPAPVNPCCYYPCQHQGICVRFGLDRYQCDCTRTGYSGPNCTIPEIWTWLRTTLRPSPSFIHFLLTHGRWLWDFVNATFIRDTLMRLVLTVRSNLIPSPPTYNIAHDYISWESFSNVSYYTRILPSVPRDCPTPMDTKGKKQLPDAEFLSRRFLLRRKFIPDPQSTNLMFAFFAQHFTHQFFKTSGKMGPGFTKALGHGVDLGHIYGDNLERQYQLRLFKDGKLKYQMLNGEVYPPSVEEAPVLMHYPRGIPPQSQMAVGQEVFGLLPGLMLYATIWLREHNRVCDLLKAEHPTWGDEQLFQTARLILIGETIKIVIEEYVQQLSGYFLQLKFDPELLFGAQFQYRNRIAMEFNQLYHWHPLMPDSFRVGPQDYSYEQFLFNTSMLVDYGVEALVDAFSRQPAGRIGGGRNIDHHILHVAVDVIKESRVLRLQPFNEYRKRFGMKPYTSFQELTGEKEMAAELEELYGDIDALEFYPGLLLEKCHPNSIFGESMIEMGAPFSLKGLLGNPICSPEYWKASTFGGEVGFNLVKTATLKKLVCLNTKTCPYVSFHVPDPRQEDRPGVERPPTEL
Known IC50 of a selection of molecules
experimentalEndpoint: IC50 (µM)

[
  {
    "smilesStructure": "CC(C)(C)c1ccc(Cc2ccc(O)c(C(C)(C)C)c2)cc1",
    "recordedResult": 17.4
  },
  {
    "smilesStructure": "Oc1cc(Cl)ccc1Oc1ccc(Cl)cc1Cl",
    "recordedResult": 43
  }
]

====

Target: COX-2 (Homo sapiens)
Sequence (P35354 18-604): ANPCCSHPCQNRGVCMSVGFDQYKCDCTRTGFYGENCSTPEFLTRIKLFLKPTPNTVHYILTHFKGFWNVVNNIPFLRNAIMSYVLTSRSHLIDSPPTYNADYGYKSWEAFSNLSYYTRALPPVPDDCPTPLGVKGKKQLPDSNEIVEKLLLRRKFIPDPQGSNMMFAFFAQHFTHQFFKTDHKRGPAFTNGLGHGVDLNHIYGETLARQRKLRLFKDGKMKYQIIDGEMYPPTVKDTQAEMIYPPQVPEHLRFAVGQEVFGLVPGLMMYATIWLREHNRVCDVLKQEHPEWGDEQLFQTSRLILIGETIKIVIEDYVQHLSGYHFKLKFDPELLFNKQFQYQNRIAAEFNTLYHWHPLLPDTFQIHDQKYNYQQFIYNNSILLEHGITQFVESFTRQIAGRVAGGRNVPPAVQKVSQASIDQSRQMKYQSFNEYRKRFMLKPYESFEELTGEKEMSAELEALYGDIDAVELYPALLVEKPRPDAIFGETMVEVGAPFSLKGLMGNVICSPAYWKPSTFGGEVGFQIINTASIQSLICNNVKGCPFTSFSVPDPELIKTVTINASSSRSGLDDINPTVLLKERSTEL
Assay: COX-2 inhibition, oxygen utilization assay
Type: biochemical
experimentalEndpoint: IC50 (µM)

[
  {
    "smilesStructure": "Oc1cc(Cl)ccc1Oc1ccc(Cl)cc1Cl",
    "measurementTarget": "COX-2 (Homo sapiens)",
    "recordedResult": 229
  }
]

These data points were gathered from patent US5998487A.
